Target: T1, monkey IL-23R-mouse Fc fusion protein (monkey; mouse)
T1 construct: extracellular domain; also called monkey IL-23R-Fc fusion protein
Test: antigen ELISA, monkey IL-23R-mouse Fc immobilized, HRP anti-human IgG, chemiluminescence
reportedEndpoint: EC50 (µg/mL)
Numeric only. Scale: µg/mL

| binder | reportedEndpoint | unitOfMeasurement | assayResult |
| --- | --- | --- | --- |
| fully human 25-3-4 (antibody, human IgG1, kappa, V domains shown, human Ig gamma1 / kappa) VH: QVQLQESGPGLVKPSQTLSLTCSVSGGSISSGDHYWTWIRQHPGKGLEWIGYIYSSGHTYYSPSLKSRVTISVDTSKNQFSLRLSSVTAADTAVYYCARVGDYEWFDTWGQGTLVTVSS VL: DIVMTQSPDSLAVSLGERATINCKSSQTILYPSNNMNYLGWYQQKPGQSPRLLIYWASTRESGVPDRFSGSGSGTDFTLTISSLQAEDVAVYYCQQYYSSLPTFGQGTKVEIKR | EC50 | µg/mL | 0.0121 |

Here is another binder to look at.
Value of measured EC50 for the entry fully human 25-3-3 (antibody, human IgG1, kappa, V domains shown, human Ig gamma1 / kappa) VH: QVQLQESGPGLVKPSQTLSLTCSVSGGSISSGDHYWTWIRQHPGKGLEWIGYIYSSGHTYYSPSLKSRVTISVDTSKNQFSLRLSSVTAADTAVYYCARVGDYEWFDTWGQGTLVTVSS VL: DIVMTQSPDSLAVSLGERATINCKSSQTILYPSNNMNYLGWYQQRAGQSPRLLIYWASTRESGVPDRFSGSGSGTDFTLTISSLQAEDVAVYYCQQYYSSLPTFGQGTKVEIKR : 0.0121

Values compiled from patent US20150126713A1.
